In this section, each of the compounds is paired with its reported GI50.
# System: NCI-H226 lung
# ASSAY_SUMMARY: NCI tumour cell line growth inhibition, 48 h

Below, each entry is followed by its recorded GI50 result.
MOLECULE_SMILES: O=C(c1ccco1)c1c(C(F)(F)F)n([O-])c2cc(F)c(F)cc2[n+]1=O
GI50: 0.926 µM

MOLECULE_SMILES: CC1CCN(CCOc2ccc(CNc3ccc4nc(CCC5CCCCC5)[nH]c4c3)cc2)CC1
GI50: 1.63 µM

MOLECULE_SMILES: O=S(=O)(O)c1ccc2cc3nn(-c4ccc(/C=C/c5ccc(-n6nc7cc8ccc(S(=O)(=O)O)cc8cc7n6)cc5S(=O)(=O)O)c(S(=O)(=O)O)c4)nc3cc2c1
GI50: > 100 µM

MOLECULE_SMILES: COC(=O)c1cc([N+](=O)[O-])cc([N+](=O)[O-])c1Cl
GI50: 3.58 µM

MOLECULE_SMILES: O=C1/C(=C/c2ccccc2[N+](=O)[O-])COc2ccc(O)cc21
GI50: 2.4 µM

MOLECULE_SMILES: CSC1=Nc2c(c(C)c(-c3ccccc3)n2COC(CO)CO)C2=NC(=O)CN12
GI50: 88.2 µM

MOLECULE_SMILES: c1ccc(C2CCCCC2)c(OCCCCCN2CCNCC2)c1
GI50: 22.4 µM

MOLECULE_SMILES: CC(=O)[CH-]C(C)=O.CC(=O)[CH-]C(C)=O.CC(=O)[CH-]C(C)=O.[Ga+3]
GI50: > 100 µM

Here is another compound to look at.
Query: GI50; subject: O=C1C(Nc2cccc(O)c2)=C(Sc2ccccc2)C(=O)N1Cc1ccccc1 2.55 µM
